// IC50 lookup, one value per entry
Target: human testosterone 5α-reductase-1 (Homo sapiens, UniProt P18405)
Construct: expressed in transfected cells
Sequence (P18405 whole entry): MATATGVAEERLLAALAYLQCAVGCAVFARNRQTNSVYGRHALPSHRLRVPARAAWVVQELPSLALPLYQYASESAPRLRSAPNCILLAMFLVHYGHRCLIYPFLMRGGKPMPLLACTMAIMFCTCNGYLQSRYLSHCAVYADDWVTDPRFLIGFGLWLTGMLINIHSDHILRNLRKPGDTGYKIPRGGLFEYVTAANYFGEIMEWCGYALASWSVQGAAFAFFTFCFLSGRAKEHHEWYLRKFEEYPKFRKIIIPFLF
Experiment: in vitro inhibition of cloned human testosterone 5α-reductase-1 (test method 4)
Type: biochemical
Your answer is read as nM, so omit the unit and give the number.

Please review the following examples before continuing.
molecule: CCCCC1(c2ccc(CC)cc2)Oc2ccc(CC(=O)c3cn(CCCC(=O)O)c4ccccc34)cc2O1 (stereo not drawn) [Example 5]
IC50 [nM]: 11
--
molecule: CCCCCC1(c2ccc(CCC)cc2)Oc2ccc(CC(=O)c3cn(CCCC(=O)O)c4ccccc34)cc2O1 (stereo not drawn) [Example 4]
IC50 [nM]: 11
--
molecule: CCCCCCC1(c2ccc(CCC)cc2)Oc2ccc(CC(=O)c3cn(CCCC(=O)O)c4ccccc34)cc2O1 (stereo not drawn) [Example 2]
IC50 [nM]: 24
--
molecule: CCCCC1(c2ccc(CCC)cc2)Oc2ccc(CC(=O)c3cn(CCCC(=O)O)c4ccccc34)cc2O1 (stereo not drawn) [Example 6]
IC50 [nM]: 17.5
--
molecule: CCCCC1(c2ccc(CCC)cc2)Oc2ccc(CC(=O)c3cn(CCCC(=O)O)c4ccccc34)cc2O1 (stereo not drawn) [Example 1]
IC50 [nM]: 15.5

Please find the next molecule below.
Read the entry CCCc1ccc(C2(CCC)Oc3ccc(CC(=O)c4cn(CCCC(=O)O)c5ccccc45)cc3O2)cc1 (stereo not drawn) [Example 3] and write its reported IC50.
14
